This section presents molecules with their documented hERG current change (%, negative = inhibition) at 10uM values.
Target: human ether-à-go-go-related gene (hERG) potassium channel (human);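 also: peak tail current of the secondary pulse compared with the same well before compound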
Sequence (Q12809 whole entry, looked up): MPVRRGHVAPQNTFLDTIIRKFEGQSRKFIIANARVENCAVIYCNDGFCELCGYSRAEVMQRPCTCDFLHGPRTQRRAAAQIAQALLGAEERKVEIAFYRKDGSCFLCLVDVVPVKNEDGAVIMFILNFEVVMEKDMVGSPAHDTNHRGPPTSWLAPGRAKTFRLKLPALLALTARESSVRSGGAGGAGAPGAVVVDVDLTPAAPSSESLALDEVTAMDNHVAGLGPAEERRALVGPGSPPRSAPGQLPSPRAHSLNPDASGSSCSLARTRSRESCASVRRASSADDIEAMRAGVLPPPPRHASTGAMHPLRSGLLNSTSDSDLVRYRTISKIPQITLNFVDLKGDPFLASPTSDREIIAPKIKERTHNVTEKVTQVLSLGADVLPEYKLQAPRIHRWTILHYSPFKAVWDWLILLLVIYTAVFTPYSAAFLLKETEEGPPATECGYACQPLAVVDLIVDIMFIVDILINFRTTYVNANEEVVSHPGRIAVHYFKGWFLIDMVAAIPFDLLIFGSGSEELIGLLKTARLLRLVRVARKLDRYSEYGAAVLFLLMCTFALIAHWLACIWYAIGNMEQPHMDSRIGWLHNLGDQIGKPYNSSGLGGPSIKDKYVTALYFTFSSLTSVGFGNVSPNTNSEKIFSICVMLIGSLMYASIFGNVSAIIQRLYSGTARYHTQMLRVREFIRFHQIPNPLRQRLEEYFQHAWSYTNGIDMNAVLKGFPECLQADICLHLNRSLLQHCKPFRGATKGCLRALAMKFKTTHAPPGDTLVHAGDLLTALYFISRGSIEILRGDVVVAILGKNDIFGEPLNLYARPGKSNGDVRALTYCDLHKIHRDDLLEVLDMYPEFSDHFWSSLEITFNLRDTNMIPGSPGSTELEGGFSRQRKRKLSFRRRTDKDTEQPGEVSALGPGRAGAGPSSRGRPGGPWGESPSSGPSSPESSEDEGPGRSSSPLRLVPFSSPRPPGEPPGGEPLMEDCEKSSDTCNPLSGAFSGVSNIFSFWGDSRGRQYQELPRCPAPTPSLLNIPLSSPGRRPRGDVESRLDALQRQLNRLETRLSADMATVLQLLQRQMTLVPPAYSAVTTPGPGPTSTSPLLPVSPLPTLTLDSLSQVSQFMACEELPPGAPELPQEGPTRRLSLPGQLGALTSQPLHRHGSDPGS
Test: primary screen, population patch clamp on CHO cells stably expressing hERG; higher = less effect of the substance
Experimental: Briefly, Chinese hamster ovary (CHO) cells stably expressing the hERG channel were dislodged from tissue culture flasks and dispensed into PPC plates. […] During the recording, background leak currents were estimated by a 100 ms step to -80 mV from an initial holding potential of -70 mV and subtracted from the subsequent current measurement. The campaign was conducted in two phases using slight differences in recording protocol. […]
In all, about 310,000 compounds went through this assay and about 14,000 (4.5%) showed an effect of 50% or more. The effect is printed as a negative number. The full list was thinned out, with strong results kept by preference.
readout name: hERG current change (%, negative = inhibition) at 10uM (%)

- molecule: "O=C(Nc1cccc(F)c1)NC1CC2CCCC(C1)N2C1CC1 (stereo not shown)"
  result: -8.34
- molecule: "CCC(CC(C)(C)O)C(=O)NNC(=S)Nc1ccccc1 (stereo not shown)"
  result: 5.73
- molecule: "Cc1ccc(C(=O)Cn2ncsc2=N)cc1"
  result: -12.5
- molecule: "CCN(Cc1ccccc1)C(=O)c1cccnc1"
  result: 2.64
- molecule: "CCOC(=O)C1C(=O)OC2(CCOC(C)(C)C2)C1C(=O)OCC (stereo not shown)"
  result: 5.89
- molecule: "COc1ccc(CCNC(=O)c2ccc(-c3ccc([N+](=O)[O-])cc3Cl)o2)cc1"
  result: 4.64
- molecule: "Cc1cccn2c(=O)c(/C=C(\\C#N)C(N)=O)c(N3CCCCCC3)nc12"
  result: -13.2
- molecule: "COc1cc2c3c(c1OC)C1(C=CC(=O)C=C1)CC3N(C(=O)c1ccccc1)CC2 (stereo not shown)"
  result: -18.6
- molecule: "CSCCC(NC(=O)C1CCC(C)CC1)C(=O)O (stereo not shown)"
  result: 16.6
- molecule: "CC1=NN(C(=O)Cc2ccc(C)cc2)C(O)(c2cccnc2)C1 (stereo not shown)"
  result: 10.1
- molecule: "Cc1cccc(NC(=O)NC2CC3CCC(C2)N3Cc2ccco2)c1 (stereo not shown)"
  result: -2.61
- molecule: "COCC1CCCCC1OS(N)(=O)=O (stereo not shown)"
  result: 5.38
- molecule: "CCN(CC)CCN(CC(=O)N(C1CCCCC1)C1CCCCC1)C(=O)c1ccco1.O=C(O)C(=O)O"
  result: 23.2
- molecule: "CCCN1C2CCCC1CC(NC(=O)Nc1cccc(C(C)=O)c1)C2 (stereo not shown)"
  result: -5.62
- molecule: "COc1ccc(CN2C3CCCC2CC(NC(=O)Nc2cccc(C)c2)C3)cc1 (stereo not shown)"
  result: -75.3
- molecule: "COc1ccc(NS(=O)(=O)c2c(C)n(C)c(=O)n(C)c2=O)cc1"
  result: 15.5
- molecule: "Cc1cc(Cn2ccnc2)c(C)c([N+](=O)[O-])c1Cn1ccnc1"
  result: -7.19
- molecule: "CCC(C)(C(=O)NC1CCCCC1)N(Cc1ccco1)C(=O)c1cnccn1 (stereo not shown)"
  result: -11.3
- molecule: "CCOC(=O)c1c([N+](=O)[O-])c(C)[nH]c(=O)c1C#N"
  result: 21.1
- molecule: "O=S1(=O)N=C(N2CCc3ccccc3C2)c2ccccc21"
  result: -39
- molecule: "O=C(Oc1c(Br)cc(C(=S)N2CCOCC2)cc1Br)c1ccc(Cl)cc1"
  result: 11.3
- molecule: "Nc1nc2n(n1)C(=O)CC(c1ccccc1[N+](=O)[O-])N2 (stereo not shown)"
  result: 41.7
